- ASSAY TARGET: EGFR Del19/C797S (Homo sapiens, UniProt P00533, C797S/DEL746-750)
- Sequence (P00533 with tags, fused parts or gaps DEL746-750/C797S): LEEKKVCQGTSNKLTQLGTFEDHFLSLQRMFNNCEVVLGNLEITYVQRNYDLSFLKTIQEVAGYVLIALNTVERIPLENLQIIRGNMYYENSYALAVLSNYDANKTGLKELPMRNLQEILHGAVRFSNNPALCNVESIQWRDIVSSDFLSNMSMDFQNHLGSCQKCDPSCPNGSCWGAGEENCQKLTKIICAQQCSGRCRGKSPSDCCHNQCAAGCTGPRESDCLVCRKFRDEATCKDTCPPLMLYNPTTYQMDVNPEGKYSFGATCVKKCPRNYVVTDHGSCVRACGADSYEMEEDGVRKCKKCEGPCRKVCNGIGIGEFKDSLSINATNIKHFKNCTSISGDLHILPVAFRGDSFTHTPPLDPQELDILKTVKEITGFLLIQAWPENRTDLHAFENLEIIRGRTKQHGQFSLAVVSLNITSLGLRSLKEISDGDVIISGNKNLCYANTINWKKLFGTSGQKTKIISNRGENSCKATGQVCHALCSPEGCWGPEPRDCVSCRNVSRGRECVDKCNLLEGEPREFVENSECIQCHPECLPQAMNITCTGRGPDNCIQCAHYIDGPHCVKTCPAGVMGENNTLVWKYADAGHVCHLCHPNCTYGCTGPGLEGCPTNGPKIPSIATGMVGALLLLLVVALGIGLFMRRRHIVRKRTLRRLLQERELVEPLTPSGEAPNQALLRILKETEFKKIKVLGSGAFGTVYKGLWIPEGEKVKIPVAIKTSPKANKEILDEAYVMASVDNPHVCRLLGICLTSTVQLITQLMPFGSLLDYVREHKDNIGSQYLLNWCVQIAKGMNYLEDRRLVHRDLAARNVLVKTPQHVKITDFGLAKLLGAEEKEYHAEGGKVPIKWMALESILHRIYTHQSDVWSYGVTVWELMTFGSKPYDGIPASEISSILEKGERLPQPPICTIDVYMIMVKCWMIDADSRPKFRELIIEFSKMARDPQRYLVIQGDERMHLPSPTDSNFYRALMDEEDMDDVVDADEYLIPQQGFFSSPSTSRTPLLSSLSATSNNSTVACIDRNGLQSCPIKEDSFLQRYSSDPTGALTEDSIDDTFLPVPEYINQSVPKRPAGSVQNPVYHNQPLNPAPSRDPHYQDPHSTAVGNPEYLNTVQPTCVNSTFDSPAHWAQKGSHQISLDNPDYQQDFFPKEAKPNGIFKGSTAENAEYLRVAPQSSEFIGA
- ASSAY METHOD TEXT: Biochemical EGFR kinase inhibition assay (Lance Ultra TR-FRET), double mutant del19/C797S
- COND: IC50 Del19/C797S (nM), 100 μM ATP
ASSAY METRIC: IC50 (nM)

Worked set:
COMPOUND | ASSAY TARGET | IC50 / nM
CN(C)C(C)(C)CNC1CCN(c2cc(Nc3ccnc(-c4cnn(S(=O)(=O)C5CC5)c4)n3)ncc2C#Cc2cnn(C)c2)CC1 | EGFR Del19/C797S (Homo sapiens, UniProt P00533, C797S/DEL746-750) | 2.3
CC1(CO)CCN(c2cc(Nc3ccnc(-c4cnn(S(=O)(=O)C5CC5)c4)n3)ncc2C#CC2(O)CCCC2)CC1 | EGFR Del19/C797S (Homo sapiens, UniProt P00533, C797S/DEL746-750) | 2.5
CC1(CO)CCN(c2cc(Nc3ccnc(-c4cnn(S(=O)(=O)C5CC5)c4)n3)ncc2C#CC2CCO[C@H]2C(F)(F)F)CC1 (stereo partly shown) | EGFR Del19/C797S (Homo sapiens, UniProt P00533, C797S/DEL746-750) | 5.8
CN(C)CCC1CCN(c2cc(Nc3ccnc(-c4cnn(S(=O)(=O)C5CC5)c4)n3)ncc2C#CC2CCO[C@H]2C(F)(F)F)CC1 (stereo partly shown) | EGFR Del19/C797S (Homo sapiens, UniProt P00533, C797S/DEL746-750) | 4.8
CC1(C#Cc2cnc(Nc3ccnc(-c4cnn(S(=O)(=O)C5CC5)c4)n3)cc2N[C@H]2CC[C@@H](O)CC2)CC1 | EGFR Del19/C797S (Homo sapiens, UniProt P00533, C797S/DEL746-750) | 2.6
Cn1cc(C#Cc2cnc(Nc3ccnc(-c4cnn(S(=O)(=O)C5CC5)c4)n3)cc2N2CCC(CCO)CC2)c(C(F)(F)F)n1 | EGFR Del19/C797S (Homo sapiens, UniProt P00533, C797S/DEL746-750) | 76.8
CN(C)CCCn1cc(C#Cc2cnc(Nc3ccnc(-c4cnn(S(=O)(=O)C5CC5)c4)n3)cc2N2CCC(F)(CO)CC2)cn1 | EGFR Del19/C797S (Homo sapiens, UniProt P00533, C797S/DEL746-750) | 0.5
O=S(=O)(C1CC1)n1cc(-c2nccc(Nc3cc(NC4CCC(CO)CC4)c(C#Cc4cnn(C5CC5(F)F)c4)cn3)n2)cn1 (stereo not shown) | EGFR Del19/C797S (Homo sapiens, UniProt P00533, C797S/DEL746-750) | 4.8
CN(C)C[C@H]1CC[C@@H](Nc2cc(Nc3ccnc(-c4cnn(S(=O)(=O)C5CC5)c4)n3)ncc2C#Cc2cnn(C)c2)CC1 | EGFR Del19/C797S (Homo sapiens, UniProt P00533, C797S/DEL746-750) | 2.4
CC1OCCC1C#Cc1cnc(Nc2ccnc(-c3cnn(S(=O)(=O)C4CC4)c3)n2)cc1NCC1CCC(O)CC1 (stereo not shown) | EGFR Del19/C797S (Homo sapiens, UniProt P00533, C797S/DEL746-750) | 78.1

P. CN(C)CC1CCN(c2cc(Nc3ccnc(-c4cnn(S(=O)(=O)C5CC5)c4)n3)ncc2C#Cc2cnn(CC(F)F)c2)CC1
Q. O=S(=O)(C1CC1)n1cc(-c2nccc(Nc3cc(NC[C@H]4CC[C@H](CO)CC4)c(C#Cc4cnn(CCF)c4)cn3)n2)cn1
R. CN1CCC(C#Cc2cnc(Nc3ccnc(-c4cnn(S(=O)(=O)C5CC5)c4)n3)cc2N2CCC3(CCCO3)CC2)C1 (stereo not shown)
input: Form: Sort by [IC50] Order [ ascending ] Output the labels ranked as instructed.
output: R, P, Q
